# System: MS2 coat protein
# run description: apparent Kd, MS2 coat protein; higher = weaker binding; RNA-MaP array
# experimental setup: designed as: OFF switch for flavin mononucleotide; no ligand
Listed next: entries and their corresponding apparent Kd.
measurement kind: apparent Kd (nM)

sequence_string=CCGUUUGAUCAGAAGGAACCAGUCGAACCAUGUGACAGACAUGAGGAUCACCCAUGUUCGCGCGGUUAGGAUAUGACAGCUCAG tested_on="MS2 coat protein" scale_unit=nM result_value=13.2
sequence_string=UGGGAACAUGAGGAUCACCCAUGUGAGGAUAUCCACCGAUUUCACACGAUAGGCACAAGGAGAAGGCACACCUA tested_on="MS2 coat protein" scale_unit=nM result_value=33.9
sequence_string=ACUCGACAUGAGGAUCACCCAUGUCAGGAUAUCUGAGUGUGGCCUCCUACUAAACUAUAGAGAAGGGACAAUGG tested_on="MS2 coat protein" scale_unit=nM result_value=10.3
sequence_string=AGAGUGAGAGGAUAUUUUGGCGUAGACAUGAGGAUCACCCAUGUGUCGUGGGCACUGCUGAAAGAAGGCUCAGCUC tested_on="MS2 coat protein" scale_unit=nM result_value=29.3
sequence_string=UGGACUUCAGGAUAUACAUGAGGAUCACCCAUGUAUACGUGUAUGAUCCCAGAAACAAGUAGAAGGGAAAGCCG tested_on="MS2 coat protein" scale_unit=nM result_value=5.71
sequence_string=CGGUGUGCAGAGGAUAUCGGCGUUUUCUCACAUCGAGAAGGCUGCACAUGAGGAUCACCCAUGUAUCUUUAGGA tested_on="MS2 coat protein" scale_unit=nM result_value=58.6
sequence_string=CGUAUGUGAGGAUAUCCGAAACUAUUUACCAAAUUAUAAGUGGAGAAGGCACAUGAGGAUCACCCAUGUGAUGG tested_on="MS2 coat protein" scale_unit=nM result_value=11.5
sequence_string=UACAAACCGUUAGAUGGGACAUGAGGAUCACCCAUGUAUAACAGAAGGUCAAAUUGAAACAUUCAGAAGGAUAUGUCAUACAAA tested_on="MS2 coat protein" scale_unit=nM result_value=85.3
sequence_string=GGCAAGUGAUAGAAGGGAUACAUGAGGAUCACCCAUGUAAGGGCGAAGCCUACCCUCCUUAAAGAUCAGGAUAUAUUGCAGACG tested_on="MS2 coat protein" scale_unit=nM result_value=20.3

----------
# System: MS2 coat protein
# run description: apparent Kd, MS2 coat protein; higher = weaker binding; RNA-MaP array; FMN 200 µM where present
# experimental setup: ligand present: flavin mononucleotide; designed as: OFF switch for flavin mononucleotide
Reported apparent Kd maps to class as: low band (below 0.05 µM), middle band (0.05 µM to below 0.2 µM), high band (0.2 µM or more)

sequence_string=CGUGUUAUCGAAGGAUAUGGAUACAUGAGGAUCACCCAUGUAUAUUUUGUGAUCAAGUUUAAGAUCCAGAAGGUCGUAUACACG tested_on="MS2 coat protein" class="middle band"
sequence_string=UGAUAGGACAGAGGAUAUGCGUAUAGUUACCUCUACAUGAGGAUCACCCAUGUAGAAGGCUGUCCUAUCUAAGUCGGAAACGAC tested_on="MS2 coat protein" class="low band"
sequence_string=GGAAAGUGAGGAUAUGGUAAUUUAAUUAUUAAUUAAUUAAUCCAGAAGGCACAUGAGGAUCACCCAUGUAAAGG tested_on="MS2 coat protein" class="middle band"
sequence_string=CCGACCUUGGCAGGAUAUAGACUCGAAGUUGAUCCCGCCGGUGGAGACAUGAGGAUCACCCAUGUCUAGAAGGGCCAGUCGAAA tested_on="MS2 coat protein" class="middle band"
sequence_string=CCUUGACAUGAGGAUCACCCAUGUGAGGAUAUGAUGCGAUCGUCGAAAGACGAUAGCAUCAGAAGGCACAUAUG tested_on="MS2 coat protein" class="middle band"
sequence_string=GUCCUCUUGACAUGAGGAUCACCCAUGUAUUAUUUGUUAACUGAGGAUAUACUCUUAUUUUUUAUGUAGAAGGCAGAUUUGUUC tested_on="MS2 coat protein" class="middle band"
sequence_string=GGAUGUCAAAGACAUCCAAUACGAACAUGAGGAUCACCCAUGUAGGAUAUGCUACUCAAAGAGUAGCAGAAGGACAUGUGCCUU tested_on="MS2 coat protein" class="high band"
sequence_string=CUGCGGUAGGAGAAGGACGGCGGGUUAUUUUCGUACAUGAGGAUCACCCAUGUAGGAUAUCCUACCUCAGGCGGCCUACUACAG tested_on="MS2 coat protein" class="low band"
sequence_string=UGUGCCUCGAGAGGAUAUACAUGAGGAUCACCCAUGUAAGUAGAGGUGGAAACACCUCUACAAAUGUAGAAGGCUCGAGGCACA tested_on="MS2 coat protein" class="middle band"
sequence_string=UCAGGCUUCGAGAAGGACAUGAGGAUCACCCAUGUGCGUGUGAAGCAGCCGUGAGGCUGCAUCAUGUAGGAUAUCGGAGUCUGU tested_on="MS2 coat protein" class="high band"
sequence_string=GUUUUGAUAGGAUAUACAUGAGGAUCACCCAUGUCCCACCCGUUACCUCUGACCCUAUGUAGAAGGAUCGUUUG tested_on="MS2 coat protein" class="low band"
sequence_string=CGAGCUGCUGUGAGGAUAUGCCUGUGGGUGCGUGGGUAGAAGGCACAUGAGGAUCACCCAUGUCCUGCAGCUCG tested_on="MS2 coat protein" class="high band"
sequence_string=AAAAGGCUAGGAUAUACCAGUGGGUGUAAGAACUCAAAGUUACAUGAGGAUCACCCAUGUAGAAGGAGUAAAAU tested_on="MS2 coat protein" class="low band"
sequence_string=GCUCUUGUCAAGAAGGGCUCGCGGUACGCUGCAGCAGGAUAUUGACAUGAGGAUCACCCAUGUCGACCGGAACAUCAUUGAGGG tested_on="MS2 coat protein" class="middle band"
sequence_string=CUUCAGUCACAGGAUAUGCUCAUCUAAUGAUGAGCAGAAGGGUGAACAUGAGGAUCACCCAUGUUUACGGUGGU tested_on="MS2 coat protein" class="high band"
